- tested-system: cathepsin D (CatD) (Homo sapiens, UniProt P07339)
- Sequence (P07339 65-412): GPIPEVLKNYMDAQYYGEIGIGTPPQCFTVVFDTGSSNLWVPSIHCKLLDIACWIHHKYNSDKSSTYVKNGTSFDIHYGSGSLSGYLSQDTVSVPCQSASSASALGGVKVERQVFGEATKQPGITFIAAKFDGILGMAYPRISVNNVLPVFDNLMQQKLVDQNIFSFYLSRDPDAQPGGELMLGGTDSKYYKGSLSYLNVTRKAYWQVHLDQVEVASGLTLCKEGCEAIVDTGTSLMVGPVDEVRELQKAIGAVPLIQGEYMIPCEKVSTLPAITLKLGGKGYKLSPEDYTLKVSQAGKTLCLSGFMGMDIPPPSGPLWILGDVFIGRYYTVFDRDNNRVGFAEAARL
- procedure-details: FRET-based CatD inhibition assay (selectivity counter screen)
- Format: biochemical
Lab note: anything with IC50 below 600 nM is marked t; values at 600 nM or higher are marked f.

{"structure-smiles": "COc1cccc(C(C)(C)NC[C@@H](O)[C@@H]2Cc3cccc(c3)OCCCCN(C)C(=O)c3cccc(c3)C(=O)N2)c1", "answer-label": "t"}
{"structure-smiles": "CCCN1CCCCc2cccc(c2)C[C@@H]([C@H](O)CNC(C)(C)c2cccc(OC)c2)NC(=O)c2cccc(c2)C1=O", "answer-label": "f"}
{"structure-smiles": "CCCN1CCOCCc2cccc(c2)C[C@@H]([C@H](O)CNC(C)(C)c2cccc(OC)c2)NC(=O)c2cccc(c2)C1=O", "answer-label": "f"}
{"structure-smiles": "COc1cccc(C(C)(C)NC[C@@H](O)[C@@H]2Cc3cccc(c3)OCCCCN(CC(C)(C)C)C(=O)c3cccc(c3)C(=O)N2)c1", "answer-label": "f"}
{"structure-smiles": "CCCN1CCCCCOc2cccc(c2)C[C@@H]([C@H](O)CNC(C)(C)c2cccc(OC)c2)NC(=O)c2cccc(c2)C1=O", "answer-label": "f"}
{"structure-smiles": "COc1cccc(C(C)(C)NC[C@@H](O)[C@@H]2Cc3cccc(c3)OCCCCNC(=O)c3cccc(c3)C(=O)N2)c1", "answer-label": "f"}
